Test system: P. falciparum 3D7 trophozoites
Assay: Metabolomic fingerprint profiling LC-MS
Format: cell-based, Plasmodium falciparum
Conditions: metabolite level change after treatment
Each entry below carries its reported cyclic-AMP.

{"compound": "COc1ccc2c(=O)cc(C(Cl)(Cl)Cl)oc2c1", "systemUnderTest": "P. falciparum 3D7 trophozoites", "cyclic-AMP": -3.2218}
{"compound": "c1ccc(Cn2c(N=Nc3c(Nc4ccccc4)ccc4ccccc34)nc3ccccc32)cc1", "systemUnderTest": "P. falciparum 3D7 trophozoites", "cyclic-AMP": 0.01699}

Input: I am curious: what cyclic-AMP value has been reported for "CCOC(=O)c1cn(CC)c2cc(N(C)CCc3ccc(OC)c(OC)c3)c(F)cc2c1=O" ?
Output: 0.02919

Input: Now consider "CN1CCN(c2ccc(Nc3c4ccccc4nc4ccccc34)cc2)CC1" and answer again.
Output: -0.3476

Input: Now consider "Cc1cc(C)cc(Nc2cc(C)nc3nc(C(F)(F)F)nn23)c1" and answer again.
Output: -0.9316

Input: Now consider COc1ccc(Br)cc1C1Nc2ccc3ccccc3c2C2=C1C(=O)CC(c1ccccc1)C2 (centres unmarked) and answer again.
Output: -0.09684

Input: Now consider "CN(C)c1ccc(C(O)(c2ccc(N(C)C)cc2)c2ccc(N(C)C)cc2)cc1" and answer again.
Output: 0.03248

Input: Now consider "Cc1ccc(Nc2nc(-c3ccccn3)cs2)cc1" and answer again.
Output: 0.1921

Input: Now consider COc1ccc(NC(=O)C2c3ccccc3C(=O)N(CC(C)C)C2c2cccs2)cc1Cl (centres unmarked) and answer again.
Output: -0.8649

Input: Now consider "CC(C)(C)c1ccc(O)c(CNC2CCCCC2)c1" and answer again.
Output: -0.9854

Input: Now consider CCOc1cc2c(cc1OCC)C(c1cc(OC)c(O)cc1Cl)NCC2 (centres unmarked) and answer again.
Output: 0.7848

Input: Now consider "CCOC(=O)c1c(NC(=O)c2ccccc2)sc2c(O)c(CN(CC)CC)ccc12" and answer again.
Output: -0.8626

Input: Now consider O=C1C(O)=C([C@H]2CC[C@H](c3ccc(Cl)cc3)CC2)C(=O)c2ccccc21 [Atovaquone, reference compound] and answer again.
Output: -0.03093

Input: Now consider "COc1ccc(-c2c(C)nn3c(N)c(C#N)cnc23)cc1OC" and answer again.
Output: 0.5443

Input: Now consider "C[n+]1c2ccccc2nc2ccc(NCCO)cc21" and answer again.
Output: 0.09405

Input: Now consider OC(CNC1CCCCC1)Cn1c2ccccc2c2ccccc21 (centres unmarked) and answer again.
Output: 0.4153

Input: Now consider "Cc1ccc(-c2cc3c(SCC(=O)Nc4cc(C(F)(F)F)ccc4Cl)nccn3n2)cc1" and answer again.
Output: -0.07723

Input: Now consider O=C(O)C1Cc2c([nH]c3ccccc23)C(c2ccc(Cl)cc2Cl)N1 (centres unmarked) and answer again.
Output: 0.217

Input: Now consider "Cc1cc(NCCN2CCCCC2)c2ccc3ccccc3c2n1" and answer again.
Output: -0.2974

Input: Now consider "CN(C)c1ccc(C=Cc2nc(=O)c3ccccc3o2)cc1" and answer again.
Output: 0.09044

Input: Now consider "Cc1cc(Nc2ccc3ccccc3c2)n2ncnc2n1" and answer again.
Output: -0.1393

Input: Now consider "CCCc1cc(O)c2c3c(c(=O)oc2c1)CN(C)CC3" and answer again.
Output: -0.23

Input: Now consider "CCOC(=O)c1cnc2ccc(CC)cc2c1O" and answer again.
Output: 0.01532
